- Test system: Human alphaherpesvirus 1
- Assay Name: In vitro minimum inhibitory concentration to inhibit thymidine deficient HSV-1 (VMV 1837)- induced cytopathogenicity in PRK cells by 50%
- Type: functional
MIC values by entry
// units = µg/mL; emit number, no label

Cn1c(N)nc2c(ncn2COCCO)c1=O | 300

Return value of MIC for input Nc1nc2c(ncn2COCCO)c(=O)[nH]1 , no commentary. 20

Return value of MIC for input Cc1cn2c(O)c3ncn(COCCO)c3nc2n1 , no commentary. 400

###

MIC values by entry
- Tested on: Suid alphaherpesvirus 1
- Assay Name: In vitro minimum inhibitory concentration to inhibit SHV-1-induced cytopathogenicity in PRK cells by 50%
- Assay type: functional

Take a look at these entries with their results.
Cc1cn2c(O)c3ncn(COCCO)c3nc2n1 | > 400 µg/mL
Nc1nc2c(ncn2COCCO)c(=O)[nH]1 | 7 µg/mL
Cc1cn2c([O-])c3c(nc2n1)[n+](COCCO)cn3C | > 400 µg/mL
Cc1cn2c(=O)c3ncn(COCCO)c3nc2n1C | > 400 µg/mL
Cn1c(N)nc2c(ncn2COCCO)c1=O | 70 µg/mL
CNc1nc(O)c2ncn(COCCO)c2n1 | > 400 µg/mL

Let us move to another entry and its MIC.
Return value of MIC for input Cn1c[n+](COCCO)c2nc(N)nc([O-])c21.O=S(=O)(O)O , no commentary. > 400 µg/mL

###

- Test system: Human alphaherpesvirus 1
- Assay Name: In vitro minimum inhibitory concentration to inhibit thymidine deficient HSV-1 (B2006)-induced cytopathogenicity in PRK cells by 50%
- Format: functional
Reported Endpoint: MIC (µg/mL)
// units = µg/mL; emit number, no label

Take a look at these entries with their results.
Cc1cn2c(O)c3ncn(COCCO)c3nc2n1 | 400
Cn1c(N)nc2c(ncn2COCCO)c1=O | 300

Return value of MIC for input Nc1nc2c(ncn2COCCO)c(=O)[nH]1 , no commentary. 20

Data origin: ChEMBL document CHEMBL1124149
